# system.tested: pEGFR in Ba/F3 cells expressing EGFR exon 20 NPG Ins D770_N771 (Homo sapiens, UniProt P00533, INS770NPG)
# Sequence (P00533 with tags, fused parts or gaps INS770NPG): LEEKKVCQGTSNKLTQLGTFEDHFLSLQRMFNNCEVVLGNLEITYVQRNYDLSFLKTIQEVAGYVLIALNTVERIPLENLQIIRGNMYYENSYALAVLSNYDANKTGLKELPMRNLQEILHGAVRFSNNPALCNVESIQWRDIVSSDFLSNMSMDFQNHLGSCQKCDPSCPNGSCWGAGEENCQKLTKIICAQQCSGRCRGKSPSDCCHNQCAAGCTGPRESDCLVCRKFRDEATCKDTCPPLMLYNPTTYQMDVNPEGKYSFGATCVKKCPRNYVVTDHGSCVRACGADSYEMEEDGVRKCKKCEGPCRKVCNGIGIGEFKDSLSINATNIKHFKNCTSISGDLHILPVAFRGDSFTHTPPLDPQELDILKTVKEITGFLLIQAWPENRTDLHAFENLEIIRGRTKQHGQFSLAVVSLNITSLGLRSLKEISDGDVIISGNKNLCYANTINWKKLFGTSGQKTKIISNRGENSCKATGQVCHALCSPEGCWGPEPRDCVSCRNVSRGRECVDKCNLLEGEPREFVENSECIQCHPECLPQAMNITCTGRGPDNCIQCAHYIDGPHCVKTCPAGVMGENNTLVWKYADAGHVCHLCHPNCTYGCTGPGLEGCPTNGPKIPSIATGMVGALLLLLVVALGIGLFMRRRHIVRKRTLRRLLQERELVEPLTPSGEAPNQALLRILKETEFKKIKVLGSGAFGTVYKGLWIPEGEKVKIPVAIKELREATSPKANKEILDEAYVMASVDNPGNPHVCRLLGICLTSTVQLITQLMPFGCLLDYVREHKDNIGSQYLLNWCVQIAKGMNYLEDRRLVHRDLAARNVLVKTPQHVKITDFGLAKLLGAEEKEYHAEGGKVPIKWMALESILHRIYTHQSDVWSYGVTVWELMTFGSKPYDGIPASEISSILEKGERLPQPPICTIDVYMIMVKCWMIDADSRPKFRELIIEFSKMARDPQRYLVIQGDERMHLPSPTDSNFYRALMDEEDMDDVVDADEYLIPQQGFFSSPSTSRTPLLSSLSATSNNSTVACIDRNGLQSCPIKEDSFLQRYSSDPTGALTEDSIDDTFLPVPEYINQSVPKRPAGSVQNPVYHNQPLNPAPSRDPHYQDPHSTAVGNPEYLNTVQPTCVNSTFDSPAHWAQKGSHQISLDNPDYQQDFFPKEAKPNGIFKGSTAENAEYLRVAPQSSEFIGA
# assay.summary: Inhibitor activity on EGFR phosphorylation (pEGFR AlphaLISA, 2 h), Ba/F3 EGFR exon 20 NPG insertion
# assay.context: Ba/F3 EGFR exon 20 NPG Ins D770_N771
parameter.measured: IC50

Known results for compounds:
compound	val
COc1c(Cl)cccc1Nc1c(-c2ccncc2C#C[C@@H]2CN(C)CCO2)[nH]c2c1C(=O)NCC2	< 100 nM
CCC(=O)N1CCC[C@@H]1COc1cnccc1-c1[nH]c2c(c1Nc1cccc(Cl)c1OC)C(=O)NCC2	100 to 1000 nM
COc1c(F)cccc1Nc1c(-c2ccncc2OCc2ccccn2)[nH]c2c1C(=O)NCC2	< 100 nM
C=CC(=O)N1CCC[C@H]1C#Cc1cnccc1-c1[nH]c2c(c1Nc1cccc(F)c1OC)C(=O)NCC2 [Compound 147a]	< 100 nM

Pending compound:
The compound listed as C=CC(=O)N1CCC[C@H]1COc1cnccc1-c1[nH]c2c(c1Nc1cccc(Cl)c1OC)C(=O)NCC2 [Compound 138b] shows IC50 equal to < 100 nM
